test system: Leishmania major; assay: Antileishmanial activity against Leishmania major amastigotes infected in mouse RAW 264.7 cells by luciferase reporter gene assay; type: functional, organism-based; settings: RAW264.7
parameter_measured: pEC50
Scale for pEC50: -log10 of concentration given in mol/L; no unit attached.

Worked cases, pEC50 given:
CN1CCN(c2nccc(Nc3ccc4c(Nc5cnccn5)ccnc4c3)n2)CC1	5.48
CCn1cc/c(=N\c2cnccn2)c2ccc(-c3cnc(N4CCCN(C)CC4)nc3)cc21	4.64
COc1ccc(Nc2ccnc3cc(-c4cnc(N5CCCN(C)CC5)nc4)ccc23)cc1Cl	5.80
CN1CCN(c2ncc(-c3ccc4/c(=N/c5cnccn5)ccn(C)c4c3)cn2)CC1	5.64
CN1CCN(c2ccc(Nc3ccc4c(Nc5cnccn5)ccnc4c3)cc2)CC1	5.10

Query block: Lab note: record pEC50 of "CN1C[C@H]2C[C@@H]1CN2c1ncc(-c2ccc3c(Nc4cnccn4)ccnc3c2)cn1" tested on Leishmania major.
Result block: 5.59

###

experiment: Selectivity index, ratio of TC50 for human HepG2 cells to EC50 for antiplasmodial activity against Plasmodium falciparum D6; type: toxicity
Below, each of the molecules is paired with its reported selectivity ratio value.
Keep the answer to the number alone.

CN1CCN(c2ncc(-c3ccc4c(NC5CCOCC5)ccnc4c3)cn2)CC1	600
CN1CCCN(c2ncc(-c3ccc4c(Nc5ccc(OC(F)(F)F)cc5)ccnc4c3)cn2)CC1	233

Query block: Specify selectivity ratio for "Cc1cc2c(Nc3cnccn3)ccnc2cc1-c1cnc(N2CCN(C)CC2)nc1" and stop.
Result block: 33

###

assay: Selectivity index, ratio of TC50 for mouse C2C12 cells to EC50 for antitrypanosomal activity against Trypanosoma cruzi CaI-72 trypomastigotes infected in mouse C2C12 cells; format: toxicity, cell-based
Below, each of the compounds is paired with its reported selectivity ratio value.
Keep the answer to the number alone.

Worked cases, selectivity ratio given:
CN1CCCN(c2ncc(-c3ccc(C(=O)Nc4cccc(Cl)c4F)c(O)c3)cn2)CC1	1.6
COc1ccc(Nc2ccnc3cc(-c4cnc(N5CCCN(C)CC5)nc4)ccc23)cc1Cl	12

Query block: Specify selectivity ratio for "CN1CCCN(c2ncc(-c3ccc4c(Nc5ccccn5)ccnc4c3)cn2)CC1" and stop.
Result block: 7.5

###

Below, each of the compounds is paired with its reported selectivity ratio value.
assay: Selectivity index, ratio of TC50 for human HepG2 cells to EC50 for antileishmanial activity against Leishmania major amastigotes infected in mouse RAW 264.7 cells; format: toxicity, cell-based

Worked cases, selectivity ratio given:
CN1CCN(c2ncc(-c3ccc4/c(=N/c5cnccn5)ccn(C)c4c3)cn2)CC1	> 10
CCCn1cc/c(=N\c2cnccn2)c2ccc(-c3cnc(N4CCCN(C)CC4)nc3)cc21	> 22
CCn1cc/c(=N\c2cnccn2)c2ccc(-c3cnc(N4CCCN(C)CC4)nc3)cc21	> 1.5

Now take the following compound into account.
Query block: Specify selectivity ratio for "COc1ccc(NC(=O)c2ccc(-c3cccc(N4CCOCC4)c3)cc2O)cc1Cl" and stop.
Result block: > 97

###

assay: Selectivity index, ratio of TC50 for human HepG2 cells to EC50 for antiplasmodial activity against Plasmodium falciparum D6; type: toxicity
parameter_measured: selectivity ratio

CCCn1cc/c(=N\c2cnccn2)c2ccc(-c3cnc(N4CCCN(C)CC4)nc3)cc21	> 379
CCn1cc/c(=N\c2cnccn2)c2ccc(-c3cnc(N4CCCN(C)CC4)nc3)cc21	> 200
O=S(=O)(c1ccc(-c2ccc3nccc(N[C@@H]4CCCC[C@H]4O)c3c2)cc1)N1CCOCC1	> 80
COc1ccc(NC(=O)c2cc(F)c(N3CCCN(C)CC3)cc2F)cc1Cl	> 5.2

Now take the following molecule into account.
Query block: Specify selectivity ratio for "CC(C)(C)OC(=O)N1CCN(c2ncc(-c3ccc4c(Nc5cnccn5)ccnc4c3)cn2)CC1" and stop.
Result block: > 207
